conditions: 298.15 K; 101.33 kPa; Liquid; Vibrating tube method
Measurement kind: mass density (kg/m3)
Quick reminder: number only, in kg/m3, skip the unit.

Q: Need mass density, item CC/C=C\CCO [(Z)-3-hexen-1-ol]
Result: 848.64

Q: Fill in: mass density of CCCC(=O)OC [methyl butanoate] is ___
Result: 892.38

Q: Look at this compound and give its reported mass density. CCCOC(C)=O [propyl ethanoate]
Result: 882.05

Q: So what does the record say about mass density for CC(=O)C(C)=O [2,3-butanedione] ?
Result: 985.5

###

Each entry below carries its recorded mass density.
conditions: 288.15 K; 101.33 kPa; Liquid; Vibrating tube method
Respond numerically; units are kg/m3 and should not be typed.

// known answers, use as guide
CCCC(=O)OC [methyl butanoate]    903.34
CC(=O)C(C)=O    998.09
CC/C=C\CCO [(Z)-3-hexen-1-ol]    856.22

Q: Can you share its mass density? I mean this compound: CCCOC(C)=O [propyl ethanoate]
Result: 893.2

###

conditions: 308.15 K; 101.33 kPa; Liquid; Vibrating tube method
Measurement kind: mass density (kg/m3)
State the answer as a number, implicitly in kg/m3.

Worked set:
CC/C=C\CCO [(Z)-3-hexen-1-ol]    840.99
CCCC(=O)OC [methyl butanoate]    881.3
CC(=O)C(C)=O [2,3-butanedione]    972.83

In the following, a different compound is considered.
Q: Which mass density is listed for CCCOC(C)=O [propyl ethanoate] ?
Result: 870.87

###

conditions: 318.15 K; 101.33 kPa; Liquid; Vibrating tube method
The following molecules are shown together with reported mass density values.
Give the quantity in kg/m3, number only.

CCCC(=O)OC [methyl butanoate]    870.14
CC/C=C\CCO [(Z)-3-hexen-1-ol]    833.27
CCCOC(C)=O [propyl ethanoate]    859.52

Moving on to the next molecule.
Q: If you can, please state the reported mass density value of CC(=O)C(C)=O [2,3-butanedione] .
Result: 960.08
